system: U2OS; test: Multiplex assay against U2OS; format: toxicity, cell-based; conditions: human, 48 h, 10 µM, compound concentration 10 uM, replicate 2
Non-standard residues stand in square brackets, D forms with d. Residues, ends and D or L forms follow the SMILES beside them.
Tag: true if measured Population Apoptotic (%) is not below 90%, false if it is.

COMPOUND: CCCCCCNC(=O)Nc1ccc(S(=O)(=O)Nc2ccc(CCNC[C@H](O)COc3ccc(O)cc3)cc2)cc1
CATEGORY_LABEL: true
//
COMPOUND: Nc1nc(CC(=O)Nc2ccc(CCNC[C@H](O)c3ccccc3)cc2)cs1
CATEGORY_LABEL: false
//
COMPOUND: Cc1cc(O)c(-c2ccc([C@@H](C)CN(C)C)cc2)c2c1[nH]c(=O)c1sccc12
CATEGORY_LABEL: true
//
COMPOUND: COc1ccc2c(c1OCc1ccccc1)C[C@@H](C(=O)O)N(C(=O)C(c1ccccc1)c1ccccc1)C2
CATEGORY_LABEL: false
//
COMPOUND: CC(C)C[C@@H]1NC(=O)[C@@H](C(C)C)NC(=O)[C@@H]2CCCN2C(=O)[C@@H](CC(=O)O)NC(=O)[C@@H](Cc2c[nH]c3ccccc23)NC1=O [BQ-123] (cyclo(L[dW][dD]P[dV]))
CATEGORY_LABEL: false
//
COMPOUND: CN1CCN2c3ccccc3Cc3ccccc3C2C1.Cl (stereo not given) [MIANSERIN HYDROCHLORIDE]
CATEGORY_LABEL: false
//
COMPOUND: CC(C)(O)C(=O)N1CCN(c2ccc(C(F)(F)F)c(C3=C(c4c[nH]c5ccccc45)C(=O)NC3=O)c2)CC1
CATEGORY_LABEL: true
//
COMPOUND: COc1cc(OC2CCN(C(C)=O)CC2)ccc1C(=O)N1CCC(N2C(=O)OCc3ccccc32)CC1
CATEGORY_LABEL: true
//
COMPOUND: Cc1ccc(OCC(O)C(C)NC(C)C)c2c1CCC2.Cl (stereo not given)
CATEGORY_LABEL: false
